test: Stability in monkey plasma assessed as parent compound remaining measured at 120 mins by LC-MS/MS analysis; type: ADME, cell-free, Macaca mulatta; conditions: rhesus monkey, read-out: Stability
Measure: remaining at 2 h (%)
Provide only the numeric value, understood in %.

Requested read-out: remaining at 2 h. Entry: CC(C)(C)[C@H](NC(=O)c1cc2cc(C(F)(F)P(=O)(O)O)ccc2s1)C(=O)N1C[C@@H](OCCCCCC#Cc2cccc3c2CN(C2CCC(=O)NC2=O)C3=O)C[C@H]1C(=O)N1CCO[C@H](c2ccccc2)C1 (stereo partly specified)
82

* * *

assay: Metabolic stability in human liver microsome assessed as parent compound remaining measured at 5 mins in presence of NADPH by LC-MS/MS analysis; type: ADME; details: liver microsomes, read-out: Stability
Measure: remaining at 5 min (%)
Provide only the numeric value, understood in %.

Requested read-out: remaining at 5 min. Entry: CC(C)(C)[C@H](NC(=O)c1cc2cc(C(F)(F)P(=O)(O)O)ccc2s1)C(=O)N1C[C@@H](OCCCCCC#Cc2cccc3c2CN(C2CCC(=O)NC2=O)C3=O)C[C@H]1C(=O)N1CCO[C@H](c2ccccc2)C1 (stereo partly specified)
94

* * *

experiment: Stability in human plasma assessed as parent compound remaining measured at 5 mins by LC-MS/MS analysis; assay type: ADME, cell-free; conditions: read-out: Stability
Measure: remaining at 5 min (%)
Provide only the numeric value, understood in %.

Requested read-out: remaining at 5 min. Entry: CC(C)(C)[C@H](NC(=O)c1cc2cc(C(F)(F)P(=O)(O)O)ccc2s1)C(=O)N1C[C@@H](OCCCCCC#Cc2cccc3c2CN(C2CCC(=O)NC2=O)C3=O)C[C@H]1C(=O)N1CCO[C@H](c2ccccc2)C1 (stereo partly specified)
79

* * *

test: Metabolic stability in dog liver microsome assessed as parent compound remaining measured at 5 mins in presence of NADPH by LC-MS/MS analysis; assay type: ADME, Canis lupus familiaris; conditions: liver microsomes, read-out: Stability
Measure: remaining at 5 min (%)
Provide only the numeric value, understood in %.

Requested read-out: remaining at 5 min. Entry: CC(C)(C)[C@H](NC(=O)c1cc2cc(C(F)(F)P(=O)(O)O)ccc2s1)C(=O)N1C[C@@H](OCCCCCC#Cc2cccc3c2CN(C2CCC(=O)NC2=O)C3=O)C[C@H]1C(=O)N1CCO[C@H](c2ccccc2)C1 (stereo partly specified)
97

* * *

So I've got a bunch of compounds here, and I need their Ki values.
Provide only the numeric value, understood in nM.

# get_value(readout= Ki, system= Signal transducer and activator of transcription 5B (Homo sapiens, UniProt P51692)) for CC(C)(C)[C@H](NC(=O)c1cc2cc(C(F)(F)P(=O)(O)O)ccc2s1)C(=O)N1CCC[C@H]1C(=O)N1CCOC(c2ccccc2F)C1 (stereo partly specified)
2400

# get_value(readout= Ki, system= Signal transducer and activator of transcription 5B (Homo sapiens, UniProt P51692)) for CC(=O)N[C@H]1C[C@@H](C(=O)N2CCO[C@H](c3ccccc3)C2)N(C(=O)[C@@H](NC(=O)c2cc3cc(C(F)(F)P(=O)(O)O)ccc3s2)C(C)(C)C)C1
590

# get_value(readout= Ki, system= Signal transducer and activator of transcription 5B (Homo sapiens, UniProt P51692)) for CC(C)(C)[C@H](NC(=O)c1cc2cc(C(F)(F)P(=O)(O)O)ccc2s1)C(=O)N1CCC[C@H]1C(=O)N1CCOC(c2ccc(F)cc2)C1 (stereo partly specified)
4400

# get_value(readout= Ki, system= Signal transducer and activator of transcription 5B (Homo sapiens, UniProt P51692)) for CC(C)(C)[C@H](NC(=O)c1cc2cc(C(F)(F)P(=O)(O)O)ccc2s1)C(=O)N1CCC[C@H]1C(=O)N1CCOC(C2CCCCC2)C1 (stereo partly specified)
200
